Test system: Solanum nigrum
TEST_DESCRIPTION: Herbicidal action, post-emergence, pots in glasshouse (Example B2)
Assay type: in vivo
RUN_PARAMETERS: 1000 g/ha, evaluated after 13 days, 10=total damage to plant, 0=no damage to plant
Response field label takes 1 when SOLNI damage to plant is strictly below 2 and 0 in all other cases.

| MOLECULE | ASSIGNED_CLASS |
| --- | --- |
| Cc1cc(Cl)c2c(O)c(-c3c(F)ccc(F)c3Cl)c(=O)n(C)c2n1 [D18] | 0 |
| O=c1c(-c2c(F)ccc(F)c2Cl)c(O)c2cccnc2n1CC(F)F [D21] | 0 |
| Cn1c(=O)c(-c2c(F)ccc(F)c2Cl)c(O)c2ccc(C(F)(F)F)nc21 [D29] | 0 |
| O=c1[nH]c2nc(Cl)ccc2c(O)c1-c1c(F)ccc(F)c1Cl [D14] | 1 |
| CCn1c(=O)c(-c2c(F)ccc(F)c2Cl)c(OC(=O)C(C)C)c2cncnc21 [E2] | 0 |
| Cc1cc(C)c(-c2c(O)c3cccnc3n(C)c2=O)c(C)c1 [D24] | 1 |
| CCn1c(=O)c(-c2c(F)ccc(Cl)c2Cl)c(O)c2c(OC)ccnc21 [D26] | 0 |
| CC(C)(C)C(=O)Oc1c(-c2c(F)ccc(F)c2Cl)c(=O)[nH]c2nc(C(F)(F)F)ccc12 [D31] | 1 |
| CC(C)C(=O)Oc1c(-c2c(F)ccc(Br)c2Cl)c(=O)n(CC(F)F)c2ncccc12 [D23] | 0 |
| O=c1[nH]c2ncccc2c(O)c1-c1c(F)ccc(Br)c1Cl [D33] | 0 |
| Cn1c(=O)c(-c2c(F)ccc(F)c2Cl)c(O)c2ccncc21 [C1] | 1 |
| CC(C)(C)C(=O)Oc1c(-c2c(F)ccc(F)c2Cl)c(=O)n(CC(F)F)c2ncccc12 [D10] | 0 |
| O=c1c(-c2c(F)ccc(F)c2Cl)c(O)c2ccc(Cl)nc2n1CC(F)F [D17] | 0 |
| CC(C)C(=O)Oc1c(-c2c(F)ccc(F)c2Cl)c(=O)n(CC(F)F)c2ncncc12 [E3] | 0 |
| CCOC(=O)Oc1c(-c2c(C)cc(C)cc2C)c(=O)[nH]c2nncnc12 [E9] | 1 |
